Provenance of the data: paper PMC6683731

- TEST_TARGET: His6-SET (full length) (human, UniProt Q01105 1-290)
- Sequence (Q01105 whole entry): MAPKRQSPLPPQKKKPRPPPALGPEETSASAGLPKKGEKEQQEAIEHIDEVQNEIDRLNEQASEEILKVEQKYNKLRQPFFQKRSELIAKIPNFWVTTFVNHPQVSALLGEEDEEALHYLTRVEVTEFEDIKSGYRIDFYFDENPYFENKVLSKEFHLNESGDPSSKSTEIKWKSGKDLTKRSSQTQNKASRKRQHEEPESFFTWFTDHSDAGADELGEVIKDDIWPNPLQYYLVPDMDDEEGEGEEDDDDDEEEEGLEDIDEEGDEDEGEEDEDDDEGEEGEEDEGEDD
- METHOD_SUMMARY: pull-down
REPORTED_ENDPOINT: binding result

>>> value_measured("GST-Sgo1 fragment 280–353 (domain or fragment, human, UniProt Q5FBB7 280-353, looked up) TKSKQRDTQERKREEKRKANRRKSKRMSKYKENKSENKKTVPQKKMHKSVSSNDAYNFNLEEGVHLTPFRQKVS")
"binds"
>>> value_measured("GST-Sgo1 fragment 200–353 (domain or fragment, human, UniProt Q5FBB7 200-353, looked up) NSICQFDSLDDFETSHLAGKSFEFERVGFLDPLVNMHIPENVQHNACQWSKDQVNLSPKLIQPGTFTKTKEDILESKSEQTKSKQRDTQERKREEKRKANRRKSKRMSKYKENKSENKKTVPQKKMHKSVSSNDAYNFNLEEGVHLTPFRQKVS")
"binds"
